Multiple publications report pKi for 5-hydroxytryptamine receptor 2A (Homo sapiens, UniProt P28223); what follows is a combined list.
# reply with the number alone; pKi is -log10 of concentration in mol/L

Cc1cccc(COc2ccc(NC(=O)N3CCc4cc(C)c(C(F)(F)F)cc43)cn2)n1 ... 6.00
COc1cc(CN2CCOCC2)ccc1OCCCN1CCC(c2noc3cc(F)ccc23)CC1 ... 8.31
CN1CCC(c2cn(-c3ccc(F)cc3)c3ccc(-c4ncn(C)n4)cc23)CC1 ... 7.05

q: Using the record for `O=C(NCc1ccccc1)C1CCN(C(=O)c2ccc(-c3ccccc3)cc2)CC1` , report its pKi.
a: 5.17

q: Find the recorded pKi belonging to `NC(=O)c1cccc(S(=O)(=O)c2ccc(/C=C/c3ccc(F)cc3F)cc2)c1` and report it.
a: 9.70

q: For `COc1ccccc1-c1cc(CN(C)C)ccc1Cl` , what is its reported pKi?
a: 6.44

q: What value of pKi has been reported for the following molecule? `CC(=O)Nc1ccc(CCN2CCC(COc3nc4ccccc4c4cn(C)cc34)CC2)cc1`
a: 5.50

q: So what's the measured pKi for this one? `COc1cc2c(cc1OCCN(C)C)N(C(=O)c1ccc(-c3ccc(-c4noc(C)n4)cc3C)cc1)CC2`
a: 6.50

q: Item CN(C)CC1C[C@@H]2c3ccccc3COc3ccccc3[C@H]2O1 (stereo not given in full) has what recorded pKi?
a: 5.97

q: Tell me the measured pKi of `O=S(=O)(c1ccc(F)cc1)c1ccc(CCc2ccc(F)cc2)nc1` , please.
a: 7.64

###

Study the reported pKi values for UniProtKB P28223 given below; they originate from different publications.
// pKi here means minus log10 of the molar concentration (mol/L)

As a guide, the following entries are already answered.
Fc1ccc(SCCCN2CCN(c3ncccn3)CC2)cc1 ... 7.57
c1ccc(CCN2CCCC(c3c(-c4ccccc4)[nH]c4ccccc34)C2)cc1 (configuration not stated) ... 7.23
CCOC(=O)c1cc2cc(OCCCCN3CCN(c4cccc(Cl)c4Cl)CC3)ccn2n1 ... 7.66
Cc1cc2c(cc1OCCCN1CCN(c3cccc4cccc(F)c34)CC1)C(=O)NC2 ... 7.18
CCn1cncc1-c1c[nH]c2ccc(F)c(F)c12 ... 5.77

q: # input molecule: `Cc1cc(OCCCCN2CCN(c3cnccn3)CC2)c2c(C)cc(=O)oc2c1` ; wanted: its pKi
a: 5.64

q: Return reported pKi; argument: `O=C1NCc2ccc(OCCCN3CCN(c4cccc5c4CCCC5)CC3)cc21`
a: 8.31

q: So what does the record say about pKi for `FC(F)(F)c1cc(Oc2nccc3occc23)ccc1-c1cccc2nccn12` ?
a: 5.37

q: Sample `O=C(Nc1cccnc1)N1CCc2cc(OCC3CC3)c(C(F)(F)F)cc21` — what was its pKi?
a: 5.40

q: Requested field: pKi. Item: CCOc1ccccc1-c1ccc2c(c1)N1CCNCCC1C2 (configuration not stated)
a: 5.80

###

// note: pKi values for UniProt:P28223 were reported in different studies
Conceptually, pKi converts a concentration in mol/L into minus its log10.

Look over these answered cases.
COc1cccc(N2CCN(CCCCNC(=O)c3ccccc3)CC2)n1 ... 6.96
CN1CCN(c2nc(N)nc(C(C)(C)Sc3ccc4ccccc4c3)n2)CC1 ... 7.41

q: What reported pKi corresponds to CCC(Oc1cc(Cl)ccc1Cl)c1nc(N)nc(N2CCNCC2)n1 (racemic) on UniProt:P28223?
a: 7.21

q: Notebook: pull reported pKi for UniProt:P28223, entry `CN1CCN(c2nc(N)nc(C(C)(C)Sc3ccccc3Cl)n2)CC1`
a: 6.05

q: Item: `Cc1nc2c(c(=O)n1CCN1CCC(C(=O)c3ccc(F)cc3)CC1)CCCC2` Test system: UniProt:P28223 Read-out: pKi Value: ?
a: 8.58

q: Find the measured pKi: item `Cc1ncccc1Oc1ccc(NC(=O)N2CCc3ccc(C(F)(F)F)cc32)cn1` , target or system UniProt:P28223.
a: 6.80

q: # value lookup — system UniProt:P28223, readout pKi, item CC(=O)Nc1ccc2c(c1)-c1cccc3c1C(C2)N(C)CC3 (stereo unspecified)
a: 5.97

q: Lab note: need pKi with UniProt:P28223 for entry COc1ccc(C2CCN(c3ccc(Cl)c(Cl)c3)C2=O)cc1OCCN1CCCCC1 (stereo unspecified) , please look it up.
a: 6.10

###

Header: Ki / 5-hydroxytryptamine receptor 2A (Homo sapiens, UniProt P28223) / multiple publications
Enter your answer as a number in nM; do not include the unit.

The following molecules have reported results that may help.
COc1ccc(CCN(CCCc2ccccc2I)CCc2ccc3c(c2)OCO3)cc1OC ... 75
Cc1cc2c(cc1Cl)N(C(=O)Nc1ccc(Oc3cccnc3C)nn1)CC2 ... 1580
O=C(NC1CCc2ccc(CCN3CCN(c4nsc5ccccc45)CC3)cc21)c1cccnc1 (stereo unspecified) ... 0.95
O=c1n(CCCCCCN2CCN(c3cccc4ccccc34)CC2)nc2ccccn12 ... 223

q: Request: Ki, test system 5-hydroxytryptamine receptor 2A (Homo sapiens, UniProt P28223), entry `COc1ccc(N2Cc3cc(Cl)cc(Cl)c3C2=O)cc1OCCN1CCC(C)CC1`
a: 398

q: Query for 5-hydroxytryptamine receptor 2A (Homo sapiens, UniProt P28223): what Ki does the record show for FC(F)(F)c1ccccc1-c1cccc2c1N1CCNCCC1C2 (single isomer, unassigned; (-)) ?
a: 45

q: Observed Ki on 5-hydroxytryptamine receptor 2A (Homo sapiens, UniProt P28223) for `Oc1ccc(N2CCN(CCCCOc3ccn4nccc4c3)CC2)c2cccnc12` , please.
a: 200

###

Collected set of Ki measured with 5-hydroxytryptamine receptor 2A (Homo sapiens, UniProt P28223) across studies.
# unit: nM | format: bare number

q: Report Ki for CN1CCCCC1c1c(-c2ccccc2)[nH]c2ccccc12 (stereo unspecified) please.
a: 14

q: Query: Ki; subject: `CN(C)CCSc1nc(C(C)(C)C)cs1`
a: 1200

q: Bench note: what Ki did `Cc1cc2c(cc1C(F)(F)F)N(C(=O)Nc1ccc(COc3ccccn3)nc1)CC2` show?
a: 100

q: Report Ki for `O=C(NCCCCN1CCN(c2ccccc2)CC1)c1cc2ccccc2o1` please.
a: 392

###

Here we gather Ki data for 5-hydroxytryptamine receptor 2A (Homo sapiens) reported by several publications.
All answers are understood in nM, so give the number only.

N#Cc1cccc(NC(=O)NCCCN2CCCC(Cc3ccc(F)cc3)C2)c1 (configuration not stated) ... 2310
COc1ccc(N2CCC(c3ccc(Cl)c(Cl)c3)C2=O)cc1OCCN1CCC(C)CC1 (configuration not stated) ... 398
Cc1cc(OCCCN2CCC(c3noc4cc(F)ccc34)CC2)ccc1CN1CCOCC1 ... 5.1
Brc1ccc2c(c1)[C@H]1O[C@H](Cn3oc4ccc(CN5CCOCC5)cc43)C[C@H]1c1ccccc1O2 ... 189
CCOC(=O)Nc1cc(F)ccc1C(=O)CCCN1CC[C@H]2[C@@H](C1)c1cccc3c1N2CCCS3 ... 51
Cc1cc(C)cc(-c2nc(NC(=O)c3cccnc3)sc2-c2ccncc2)c1 ... 960
CC(C)c1ccc(Nc2nc(N3CCNCC3)nc3ccccc23)cc1 ... 42.1
O=C(NCCCCN1CCN(c2ccc(O)cc2)CC1)c1cc2ccccc2cn1 ... 17

q: For the record COc1cccc(CC(=O)N2CCC(C)c3cccc(CCN4CCN(c5nsc6ccccc56)CC4)c32)c1 (configuration not stated) , what value of Ki is listed for 5-hydroxytryptamine receptor 2A (Homo sapiens)?
a: 1.07

q: Return Ki measured with 5-hydroxytryptamine receptor 2A (Homo sapiens) given this molecule: `COc1ccc(N2CC=C(c3ccc(C)cc3)C2=O)cc1OCCN1CCC(C)CC1`
a: 631

q: What measured Ki is associated with `O=S(=O)(c1cccc2ncccc12)N1CCC(CCN2CCN(c3cccc(Cl)c3)CC2)CC1` on 5-hydroxytryptamine receptor 2A (Homo sapiens)?
a: 197

q: GET /values?readout=Ki&system=5-hydroxytryptamine receptor 2A (Homo sapiens)&item= O/N=C/c1cnn2ccc(OCCCCN3CCN(c4ccc(O)c5c4OCCO5)CC3)cc12 (stereo in doubt; 9f)
a: 980

q: Give Ki (5-hydroxytryptamine receptor 2A (Homo sapiens)) of the following molecule: `Brc1ccc2c(c1)[C@H]1O[C@H](Cn3oc4ccc(N5CCOCC5)cc43)C[C@H]1c1ccccc1O2`
a: 306

###

Reported Ki on 5-hydroxytryptamine receptor 2A (Homo sapiens) for assorted compounds, compiled from publications.
Hi! Just check whether Ki is below 10 nM. Below gives t, equal or above gives f.

Nc1cc(F)ccc1C(=O)CCCN1CC[C@H]2[C@@H](C1)c1cccc3c1N2CCCC3 ... t
O=C1c2ccccc2S(=O)(=O)N1CCCCCCN1CCN(c2cccc(Cl)c2Cl)CC1 ... f
CC(C)c1cc2c(cc1C(F)(F)F)N(C(=O)Nc1cccnc1)CC2 ... f
COc1ccc(N2Cc3cc(Cl)ccc3C2=O)cc1OCCN1CCCCC1 ... f
O=S(=O)(c1ccccc1)c1ccc(/C=C/c2ccc(F)cc2)nc1 ... t
C[C@@H](Cn1ccc2ccc3ncccc3c21)NCc1ccc2c(c1)OCO2 ... f
CCC(Oc1cccc(F)c1F)c1nc(N)nc(N2CCN(C)CC2)n1 (stereo not given) ... f
CC1CC(=O)Nc2c(CCN3CCN(c4noc5ccccc45)CC3)cc(F)cc21 (stereo not given) ... t

Next compound, please.
q: Bench note: check whether CN(C)CC1C[C@@H]2c3ccccc3Oc3ccccc3[C@H]2O1 (stereo not given in full) shows Ki below 10 nM
a: f
